All figures here come from ChEMBL document CHEMBL3580564.

- tested.system: 5-hydroxytryptamine receptor 2B (Homo sapiens, UniProt P41595)
- Sequence (P41595 whole entry): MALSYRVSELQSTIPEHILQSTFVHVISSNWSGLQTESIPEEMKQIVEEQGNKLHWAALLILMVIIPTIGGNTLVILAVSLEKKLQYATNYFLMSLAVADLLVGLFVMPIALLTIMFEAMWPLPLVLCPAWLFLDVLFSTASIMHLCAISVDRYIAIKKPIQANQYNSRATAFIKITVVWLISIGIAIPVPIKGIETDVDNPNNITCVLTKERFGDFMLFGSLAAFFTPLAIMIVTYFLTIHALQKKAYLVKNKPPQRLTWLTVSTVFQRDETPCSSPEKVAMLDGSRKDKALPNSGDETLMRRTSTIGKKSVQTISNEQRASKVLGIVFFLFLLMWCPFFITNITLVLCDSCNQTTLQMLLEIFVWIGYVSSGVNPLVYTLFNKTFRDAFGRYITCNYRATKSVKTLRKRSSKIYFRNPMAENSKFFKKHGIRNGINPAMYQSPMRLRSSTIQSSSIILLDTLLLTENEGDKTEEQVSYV
- experimental.protocol: Displacement of [3H]LSD from human recombinant 5-HT2B receptor expressed in HEK cell membranes by radioligand binding assay
recorded.metric: Ki (nM)

> print(dat)
                            molecule.smiles  unit.label  assay.value
1  COc1cc2c(cc1O)C[C@H]1c3c(cc(OC)c(OC)c3-2)CCN1C          nM          323

====

- tested.system: Sodium-dependent dopamine transporter (Homo sapiens)
- Sequence (Q01959 whole entry): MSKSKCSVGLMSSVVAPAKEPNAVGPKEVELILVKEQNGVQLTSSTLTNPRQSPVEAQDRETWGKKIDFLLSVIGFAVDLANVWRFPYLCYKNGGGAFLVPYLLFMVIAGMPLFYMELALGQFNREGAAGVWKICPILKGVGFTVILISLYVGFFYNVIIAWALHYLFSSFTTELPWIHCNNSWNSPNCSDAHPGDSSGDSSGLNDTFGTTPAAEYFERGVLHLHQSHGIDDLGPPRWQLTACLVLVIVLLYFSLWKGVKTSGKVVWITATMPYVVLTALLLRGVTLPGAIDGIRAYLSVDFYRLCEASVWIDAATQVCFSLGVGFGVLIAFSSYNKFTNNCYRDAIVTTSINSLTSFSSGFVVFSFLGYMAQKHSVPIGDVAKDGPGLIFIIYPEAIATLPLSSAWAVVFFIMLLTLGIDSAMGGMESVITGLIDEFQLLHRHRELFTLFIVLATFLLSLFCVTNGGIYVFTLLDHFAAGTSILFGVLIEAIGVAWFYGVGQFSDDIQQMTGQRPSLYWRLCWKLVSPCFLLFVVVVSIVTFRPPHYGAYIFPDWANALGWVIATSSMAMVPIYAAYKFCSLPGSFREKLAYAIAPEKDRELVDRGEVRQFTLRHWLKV
- experimental.protocol: Displacement of [3H]WIN35428 from human recombinant DAT expressed in HEK cell membranes by radioligand binding assay
pKi: −log10 of the molar value.
recorded.metric: pKi

> print(dat)
                            molecule.smiles  assay.value
1  COc1cc2c(cc1O)C[C@H]1c3c(cc(OC)c(OC)c3-2)CCN1C       < 6.02
